target: SNAP25 Peptide 4 (PEP4, BoNT/A cleavage site region) (Homo sapiens, UniProt P60880 SEQ:1-24); assay: ELONA; conditions: label: biotin
Sequence (P60880 174-197): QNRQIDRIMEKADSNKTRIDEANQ
parameter measured: binding signal (ELISA signal)

- PEP 4.07 (ssDNA) DNA: TTTTTAAGCCCACTCGTGTTCGCACACCGAACCACAAGCTAGTGGGCCCATG: 105
- PEP 4.18 (ssDNA) DNA: TTTTTAACACGACTATTCTGTGAGTCTCGAACTGCGACAACGTGGGCCCATG: 18
- PEP 4.05 (ssDNA) DNA: TTTTTAAGCCCACATAAGTTCGCAAGTCACAGCGATGTGATGTCGTGCCATG: 170

// provenance: patent US20220064648
